Just for reference, ChEMBL document CHEMBL1833793 is where these values come from.

Test: Drug uptake in brain of cPP-induced feeding rat model at 30 mg/kg, po after 2 hrs
Format: ADME, organism-based
Design: dose 30 mg/kg, route oral
Details: read-out: Drug uptake
readout_kind: concentration at 2 h (ng/g)
Provide the reading as a plain figure in ng/g.

Fill in reported concentration at 2 h for this entry: `CS(=O)(=O)NC[C@H]1CC[C@H](Nc2nc3c(s2)CCSc2ccccc2-3)CC1`
319

###

Test: Plasma concentration in rat at 10 mg/kg, po after 4 hrs
Assay type: ADME, organism-based
Parameters: dose 10 mg/kg, route oral
readout_kind: concentration at 4 h (ng/mL)
Provide the reading as a plain figure in ng/mL.

Fill in reported concentration at 4 h for this entry: `CS(=O)(=O)NCCCCCNc1nc2c(s1)CCSc1ccc(F)cc1-2`
61

New cases:
Fill in reported concentration at 4 h for this entry: `O=S(=O)(NC[C@H]1CC[C@H](Nc2nc3c(s2)CCSc2ccccc2-3)CC1)c1cccs1`
8

Fill in reported concentration at 4 h for this entry: `CCS(=O)(=O)NCCCCCNc1nc2c(s1)CCSc1ccccc1-2`
14

Fill in reported concentration at 4 h for this entry: `CS(=O)(=O)NC[C@H]1CC[C@H](Nc2nc3c(s2)CCSc2ccccc2-3)CC1`
320

###

Test: Plasma concentration in cPP-induced feeding rat model at 10 mg/kg, po after 1 hr
Format: ADME, organism-based
Design: dose 10 mg/kg, route oral
readout_kind: concentration at 1 h
Note to self: number, then unit, no commentary.

Fill in reported concentration at 1 h for this entry: `CS(=O)(=O)NC[C@H]1CC[C@H](Nc2nc3c(s2)CCSc2ccccc2-3)CC1`
159 ng/mL

###

Experiment: Drug uptake in brain of cPP-induced feeding rat model at 30 mg/kg, po after 4 hrs
Assay type: ADME, organism-based
Set-up: dose 30 mg/kg, route oral
Conditions: read-out: Drug uptake
readout_kind: concentration at 4 h (ng/g)
Provide the reading as a plain figure in ng/g.

Fill in reported concentration at 4 h for this entry: `CS(=O)(=O)NC[C@H]1CC[C@H](Nc2nc3c(s2)CCSc2ccccc2-3)CC1`
643

###

Experiment: Plasma concentration in cPP-induced feeding rat model at 10 mg/kg, po after 2 hrs
Format: ADME, organism-based
Parameters: dose 10 mg/kg, route oral
readout_kind: concentration at 2 h
Note to self: number, then unit, no commentary.

Fill in reported concentration at 2 h for this entry: `CS(=O)(=O)NC[C@H]1CC[C@H](Nc2nc3c(s2)CCSc2ccccc2-3)CC1`
260 ng/mL

###

Experiment: Plasma concentration in cPP-induced feeding rat model at 3 mg/kg, po after 6 hrs
Assay type: ADME, organism-based
Set-up: dose 3 mg/kg, route oral
readout_kind: concentration at 6 h (ng/mL)
Provide the reading as a plain figure in ng/mL.

Fill in reported concentration at 6 h for this entry: `CS(=O)(=O)NC[C@H]1CC[C@H](Nc2nc3c(s2)CCSc2ccccc2-3)CC1`
30

###

Assay: Volume of distribution at steady state in Sprague-Dawley rat at 1 mg/kg, iv and 2 mg/kg, po by HPLC analysis
Assay type: ADME, organism-based
Conditions: in vivo, read-out: Vdss
readout_kind: Vd (L/kg)
Provide the reading as a plain figure in L/kg.

Fill in reported Vd for this entry: `CS(=O)(=O)NC[C@H]1CC[C@H](Nc2nc3c(s2)CCSc2ccccc2-3)CC1`
3.3
